Target: T1, human IL-23 (Sino Biological, CT048-H08H) (human, UniProt Q9NPF7 20-189; P29460 23-328)
T1 sequence (looked up) 1: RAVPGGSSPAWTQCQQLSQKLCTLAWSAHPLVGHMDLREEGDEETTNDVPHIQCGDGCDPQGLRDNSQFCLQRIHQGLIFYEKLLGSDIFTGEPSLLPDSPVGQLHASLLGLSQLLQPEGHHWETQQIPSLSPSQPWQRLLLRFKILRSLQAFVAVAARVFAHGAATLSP
T1 sequence (looked up) 2: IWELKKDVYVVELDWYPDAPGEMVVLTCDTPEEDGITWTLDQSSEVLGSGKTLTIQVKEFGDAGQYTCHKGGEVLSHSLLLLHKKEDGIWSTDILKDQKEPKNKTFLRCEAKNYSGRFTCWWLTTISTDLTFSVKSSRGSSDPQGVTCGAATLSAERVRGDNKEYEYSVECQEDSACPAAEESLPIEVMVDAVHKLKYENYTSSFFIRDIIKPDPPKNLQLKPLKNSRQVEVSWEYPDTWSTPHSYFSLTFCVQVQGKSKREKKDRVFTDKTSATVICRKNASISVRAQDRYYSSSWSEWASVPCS
Experiment: cell-based or functional assay
Reported Activity in inhibiting proliferation of BaF3-IL-23R cells (IC50, nM) values are given for each entry in this list.
Only the number, expressed in nM, is required.

# Binder, Value Units, Obs Value
measured = [
    ("Hu38-11 (antibody, human IgG1, kappa, L234A L235A, V domains shown, humanized mAb38, IgG1/kappa) VH: EFQLVQSGAEVKKPGASVKVSCKASGYSFTDHNMNWVRQAPGQRLEWMGVINPNYGTTTYNQKFKGRVTITVDQSASTAYMELSSLRSEDTAVYYCARRGFAYWGQGTLVTVSS VL: DIVITQTPLSLPVTPGEPASISCRSSKSLLYKDGKTYLNWFLQRPGQSPQLLIYLMSTRASGVPDRFSGSGSGTDLTLKISRVEAEDVGVYYCQQIAEYPFTFGSGTKLEIKR", "nM", 0.168),
]

Consider now this further binder.
Any idea what Activity in inhibiting proliferation of BaF3-IL-23R cells (IC50, nM) was measured for Hu38-13 (antibody, human IgG1, kappa, L234A L235A, V domains shown, humanized mAb38, IgG1/kappa) VH: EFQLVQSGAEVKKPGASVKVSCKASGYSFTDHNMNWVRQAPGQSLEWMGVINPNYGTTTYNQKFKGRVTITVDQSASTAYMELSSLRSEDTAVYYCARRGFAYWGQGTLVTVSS VL: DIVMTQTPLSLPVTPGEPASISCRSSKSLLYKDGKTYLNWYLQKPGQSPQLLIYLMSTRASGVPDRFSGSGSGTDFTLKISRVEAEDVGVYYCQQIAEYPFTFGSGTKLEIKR ?
0.187

This collection of values is drawn from patent US20240400670A1.
